- measurement target: human KDR/EpoR fusion (phKE8) on Ba/F3-KDR cells (human, UniProt P35968 20-764; P19235 251-508, limits assumed)
- method description: cell-based or functional assay
Attribute: Inhibition of VEGF-induced proliferation, Ba/F3-KDR (IC50, nM)
Write the answer as a number in nM, unit excluded.

These solved cases illustrate the format of a correct answer.
binder="E19, E. coli-expressed, His6 (designed binder, soluble E. coli form; N-terminal residues added for expression not described) EVVAATPTSLLISWRHPHFPTRYYRITYGETGGNSPVQEFTVPLQPPTATISGLKPGVDYTITGYAVTVERNGRHLMTPISINYRTEIDKPSQHHHHHH" numeric_readout=12.3
binder="E18, E. coli-expressed, His6 (designed binder, soluble E. coli form; N-terminal residues added for expression not described) EVVAATPTSLLISWRHPHFPTRYYRITYGETGGNSPVQEFTVPLQPPTATISGLKPGVDYTITGYAVTVERNGRELNTPISINYRTEIDKPSQHHHHHH" numeric_readout=5.4
binder="E29, E. coli-expressed, His6 (designed binder, soluble E. coli form; N-terminal residues added for expression not described) EVVAATPTSLLISWRHPHFPTRYYRITYGETGGNSPVQEFTVPLQPPTATISGLKPGVDYTITGYAVTVERNGRVLMTPISINYRTEIDKPSQHHHHHH" numeric_readout=10

Request: Which measured Inhibition of VEGF-induced proliferation, Ba/F3-KDR (IC50, nM) value corresponds to M5FL, E. coli-expressed, His6 (designed binder, soluble E. coli form with Ser100) VSDVPRDLEVVAATPTSLLISWRHPHFPTRYYRITYGETGGNSPVQEFTVPLQPPLATISGLKPGVDYTITVYAVTKERNGRELFTPISINYRTEIDKPSQHHHHHH ?
Response: 3.9
